Tested on: antibodies in sera from SARS patients (sera 1a, 1b, 2, 6, 37, 62, London, SARS-yellow, SARS-green)
Assay type: binding, human
quantity: Binding of serum 62 to looped/cyclic peptides of protein M of SARS-CoV Urbani
Simply state the number, no unit and no words.

INPUT: Fill in reported Binding of serum 62 to looped/cyclic peptides of protein M of SARS-CoV Urbani for this entry: SQRVGTDSGFAAYNR
OUTPUT: 0.5

INPUT: Fill in reported Binding of serum 62 to looped/cyclic peptides of protein M of SARS-CoV Urbani for this entry: LKQLLEQWNLVIGFL
OUTPUT: 0.7

INPUT: Fill in reported Binding of serum 62 to looped/cyclic peptides of protein M of SARS-CoV Urbani for this entry: EITVATSRTLSYYKL
OUTPUT: 0.5

INPUT: Fill in reported Binding of serum 62 to looped/cyclic peptides of protein M of SARS-CoV Urbani for this entry: AMACIVGLMWLSYFV
OUTPUT: 0.5

INPUT: Fill in reported Binding of serum 62 to looped/cyclic peptides of protein M of SARS-CoV Urbani for this entry: IIKLVFLWLLWPVTL
OUTPUT: 0.6

INPUT: Fill in reported Binding of serum 62 to looped/cyclic peptides of protein M of SARS-CoV Urbani for this entry: MESELVIGAVIIRGH
OUTPUT: 0.6

INPUT: Fill in reported Binding of serum 62 to looped/cyclic peptides of protein M of SARS-CoV Urbani for this entry: LQFAYSNRNRFLYII
OUTPUT: 0.6

INPUT: Fill in reported Binding of serum 62 to looped/cyclic peptides of protein M of SARS-CoV Urbani for this entry: RCDIKDLPKEITVAT
OUTPUT: 0.6

INPUT: Fill in reported Binding of serum 62 to looped/cyclic peptides of protein M of SARS-CoV Urbani for this entry: SGFAAYNRYRIGNYK
OUTPUT: 0.7

INPUT: Fill in reported Binding of serum 62 to looped/cyclic peptides of protein M of SARS-CoV Urbani for this entry: DIKDLPKEITVATSR
OUTPUT: 0.7

INPUT: Fill in reported Binding of serum 62 to looped/cyclic peptides of protein M of SARS-CoV Urbani for this entry: EQWNLVIGFLFLAWI
OUTPUT: 0.7

INPUT: Fill in reported Binding of serum 62 to looped/cyclic peptides of protein M of SARS-CoV Urbani for this entry: LMESELVIGAVIIRG
OUTPUT: 0.6

INPUT: Fill in reported Binding of serum 62 to looped/cyclic peptides of protein M of SARS-CoV Urbani for this entry: RSMWSFNPETNILLN
OUTPUT: 0.8

INPUT: Fill in reported Binding of serum 62 to looped/cyclic peptides of protein M of SARS-CoV Urbani for this entry: GLMWLSYFVASFRLF
OUTPUT: 0.6

INPUT: Fill in reported Binding of serum 62 to looped/cyclic peptides of protein M of SARS-CoV Urbani for this entry: TNILLNVPLRGTIVT
OUTPUT: 0.6

INPUT: Fill in reported Binding of serum 62 to looped/cyclic peptides of protein M of SARS-CoV Urbani for this entry: FVLAAVYRINWVTGG
OUTPUT: 0.6

INPUT: Fill in reported Binding of serum 62 to looped/cyclic peptides of protein M of SARS-CoV Urbani for this entry: AIAMACIVGLMWLSY
OUTPUT: 0.4

INPUT: Fill in reported Binding of serum 62 to looped/cyclic peptides of protein M of SARS-CoV Urbani for this entry: LVFLWLLWPVTLACF
OUTPUT: 0.7
